// data source = patent US6468740

- Subject Of Test: monoclonal antibody D32.39
- Assay Explanation: solution competition of free peptide against radiolabeled dynorphin B peptide for D32.39
pIC50: −log10 of the molar value.
Measurement Label: pIC50

binder="Ac-RQFKVVT-NH2 [Ac-RQFKVVT-NH2, free peptide]" readout_number=8.14
binder="Ac-RQFKVVT-OH [Ac-RQFKVVT-OH, free peptide]" readout_number=7.96
binder="Ac-FKVVT-OH [Ac-FKVVT-OH, free peptide]" readout_number=4.11
binder="Ac-RRQFKVVT-OH [Ac-RRQFKVVT-OH, free peptide]" readout_number=8.41
binder="Ac-QFKVVT-OH [Ac-QFKVVT-OH, free peptide]" readout_number=5.49
